Entries annotated with measured abundance fitness
B1: Kinesin-like protein KIF16B, residues 1213 to 1273; numbered along this chain, Q96L93 (parent)
chain: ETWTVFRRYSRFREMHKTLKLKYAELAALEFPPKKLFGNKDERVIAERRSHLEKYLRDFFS

- Variants of: B1
- METHOD_SUMMARY: abundance fitness (aPCA) (normalised: wild type 0, dead -1); higher = more abundant; growth selection in yeast, the domain comes from the species named
- CONDITION: Homo sapiens

>>> result("S50K")
-0.133
>>> result("V5P")
-0.442
>>> result("L21T")
-0.079
>>> result("F59T")
-0.489
>>> result("L52P")
0.175
>>> result("E42L")
0.164

// next item, abundance fitness requested
# return recorded abundance fitness for entry `E42Y`
-0.242
